- Test System: T1, human OX40 on cells (CHO-K1/hu OX40) (human, UniProt P43489 29-277)
- T1 construct: whole, on cells; Also used here for OX40 on the HEK293/OX40/NF-kb reporter cells and on human T cells in the functional assays; also called CHO-K1/OX40; human OX40 cells
- T1 sequence (looked up): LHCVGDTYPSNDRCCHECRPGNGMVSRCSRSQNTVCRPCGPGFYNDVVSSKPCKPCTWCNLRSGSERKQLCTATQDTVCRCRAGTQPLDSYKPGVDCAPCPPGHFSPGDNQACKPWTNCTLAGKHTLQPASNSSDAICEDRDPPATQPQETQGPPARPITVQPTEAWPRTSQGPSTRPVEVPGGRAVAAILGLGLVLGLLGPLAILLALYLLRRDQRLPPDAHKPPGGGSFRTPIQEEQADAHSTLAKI
- Assay Explanation: FACS, CHO-K1/hu OX40 cells
Maximum MFI values by entry
Please give a number only; it is taken to be in MFI.

Solved entries (count: 5):
- PR002072 (antibody, human IgG1, V domains shown, no light chain; also called anti-OX40 HCAb antibody) VH: EVQLLESGGGLVQPGGSLRLSCAASGFTFSSYAMSWVRQASGKGLEWISAISGSGGSTYYADSVRGRFTISRDNSKNTLYLQMNSLRADDTAVYYCANGMTGTTDVDFWGQGTPVTVSS: 1400
- PR002071 (antibody, human IgG1, V domains shown, no light chain; also called anti-OX40 HCAb antibody) VH: EVQLVESGGGLVQPGGSLRLSCAASGFTFSSYAMSWVRQAPGKGLEWVSAISGGGGSIFYADSVRGRFTISRDNSKNTLYLQMNSLRAEDTAVYYCANGMTGTTDVDYWGQGTLVTVSS: 3060
- PR002066 (antibody, human IgG1, V domains shown, no light chain; also called anti-OX40 HCAb antibody) VH: EVQLLESGGGLVQPGGSLRLSCIASGFTFSSYAMSWVRQAPGKGLEWVSAISGRGGSTFYADSVRGRFTISRDNSKNTLYLQMNSLRAEDTAVYYCANGMTGTTDVDYWGQGTQVTVSS: 3010
- PR002056 (antibody, human IgG1, V domains shown, no light chain; also called anti-OX40 HCAb antibody) VH: EVQLLESGGGLVQPGGSLRLSCAASGFTFSSYAMSWVRQAPGKGLEWVSAISGGGGSIFYADSVRGRFTISRDNSKNTLYLQMNSLRAEDTAVYYCANGMTGTTDVDYWGQGTLVTVSS: 2930
- PR002055 (antibody, human IgG1, V domains shown, no light chain; also called anti-OX40 HCAb antibody) VH: EVQLLESGGGLVQPGGSLRLSCAASGLTFSSYAMSWVRQAPGKGLEWISAISGGGGSTYYADSVRGRFTISRDNSKNTLYLQMNSLRAEDTAVYYCANGMTGSTDVDYWGQGTLVTVSS: 2240

Per the record, PR002060 (antibody, human IgG1, V domains shown, no light chain; also called anti-OX40 HCAb antibody) VH: EVQLLESGGGLVQPGGSLRLSCAASGFTFSDYAMSWVRQAPGKGLEWVSAISGRGGSTYYADSVRGRFTISRDNSKNTLYLQMTSLRAEDTAVYYCANGMTGTTDVDYWGQGTLVTVSS has Maximum MFI of 1860

Per the record, PR002058 (antibody, human IgG1, V domains shown, no light chain; also called anti-OX40 HCAb antibody) VH: EVQLLESGGGLVQPGGSLRLSCAASGFTFSSYAMSWVRQAPGKGLEWVSAISGGSGSTFYADSVRGRFTISRDNSKNTLYLQMNSLRAEDTAVYYCADGVTGTDFDFWGQGTLVTVSS has Maximum MFI of 3560

Per the record, PR002074 (antibody, human IgG1, V domains shown, no light chain; also called anti-OX40 HCAb antibody) VH: EVQLLESGGGLVQPGGSLRLSCAASGFTFSSYAMSWVRQAPGKGLEWVSGISGGGNNTFYADSVRGRFTISRDNSKNTLYLQMNSLRAEDTAVYYCMRGWELPLLENWGQGTLVTVSS has Maximum MFI of 3540

Per the record, PR002065 (antibody, human IgG1, V domains shown, no light chain; also called anti-OX40 HCAb antibody) VH: EVQLVESGGGLVQPGGSLRLSCAASGFTFSSYAMSWVRQAPGKGLEWVSAISGRGDITFYADSVRGRFTISRDNSKNTLYLQMNSLRAEDTALYYCANGMTGSTDVDFWGQGTLVTVSS has Maximum MFI of 2860
